Reference source for all entries: ChEMBL document CHEMBL1124984

Kindly supply the reported inhibition values for the records listed here.
assayed-target: Leukotriene B4 receptor (Homo sapiens) (UniProt Q9NPC1+Q15722)
Sequence (Q15722 whole entry, looked up): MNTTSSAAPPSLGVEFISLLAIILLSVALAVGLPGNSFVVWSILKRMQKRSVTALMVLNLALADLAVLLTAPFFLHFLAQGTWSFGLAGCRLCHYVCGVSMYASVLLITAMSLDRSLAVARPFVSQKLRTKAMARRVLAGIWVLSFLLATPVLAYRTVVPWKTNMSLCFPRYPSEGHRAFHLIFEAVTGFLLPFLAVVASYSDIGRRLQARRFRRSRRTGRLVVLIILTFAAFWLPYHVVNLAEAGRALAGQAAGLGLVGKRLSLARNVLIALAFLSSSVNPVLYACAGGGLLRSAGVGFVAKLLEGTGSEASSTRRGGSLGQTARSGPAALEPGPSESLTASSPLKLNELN
Sequence (Q9NPC1 whole entry, looked up): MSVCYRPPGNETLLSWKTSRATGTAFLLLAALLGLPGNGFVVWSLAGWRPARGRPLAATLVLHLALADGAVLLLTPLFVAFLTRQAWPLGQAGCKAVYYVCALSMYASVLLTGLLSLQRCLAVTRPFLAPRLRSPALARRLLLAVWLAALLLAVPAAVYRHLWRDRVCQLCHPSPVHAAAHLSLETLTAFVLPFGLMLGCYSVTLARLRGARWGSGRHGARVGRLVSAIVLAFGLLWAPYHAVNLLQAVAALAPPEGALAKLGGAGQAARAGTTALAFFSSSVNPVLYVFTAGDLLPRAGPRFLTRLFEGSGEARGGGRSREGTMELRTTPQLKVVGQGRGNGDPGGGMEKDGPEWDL
experiment-description: Antagonistic activity against Leukotriene B4 receptor by using [3H]- LTB4 as a radioligand at a concentration of 10e-5 M
Assay type: functional
One number for each entry, in %.

Example cases with answers are listed next.
molecule	inhibition [%]
O=C(O)CCc1cc(C(=O)c2cccc(C(=O)O)c2)ccc1OCCCCCCc1ccc(O)cc1	100
O=C(O)CCc1cc(C(=O)c2cccc(C(=O)O)c2)ccc1OCCCC[S+]([O-])c1ccccc1 (stereo not given)	22
COc1ccc(/C=C/CCCCOc2ccc(C(=O)c3cccc(C(=O)O)c3)cc2CCC(=O)O)cc1	100
CCCCCCCCOc1ccc(C(=O)c2cccc(C(=O)O)c2)cc1CCC(=O)O	87

Here is the next item to consider.
`O=C(O)CCc1cc(C(=O)c2cccc(C(=O)O)c2)ccc1OCCCCS(=O)(=O)c1ccccc1` yielded inhibition of 18
